system.tested: human α-thrombin (Homo sapiens, UniProt P00734)
test.summary: Protease inhibition, Ki for human α-thrombin (fluorogenic substrate Z-Gly-Gly-Arg-AMC)
Type: biochemical
condition.set: average of R1-R3; read-out: Human alpha thrombin inhibition, Ki Average
recorded.endpoint: log10 Ki (log10 of the value in nM)
The base-10 logarithm of Ki, taken with Ki in nM, is what appears here.

Answered cases to consult:
# smiles.entry, log10 Ki
records = [
    ("O=C1C[C@H]2CCCN2C(=O)[C@H](Cc2ccccc2)NC(=O)[C@@H](NC(=O)c2ccc(Cl)s2)CC=CCCN1", 4.13),
    ("O=C1C[C@H]2CCCN2C(=O)[C@H](Cc2ccccc2)NC(=O)[C@@H](NC(=O)c2ccc(Cl)s2)CCCC=CCCCCN1", 3.06),
    ("O=C1C[C@H]2CCCN2C(=O)[C@H](Cc2ccccc2)NC(=O)[C@@H](NC(=O)c2ccc(Cl)s2)CCCC=CCCCN1", 2.51),
    ("O=C1C[C@H]2CCCN2C(=O)[C@H](Cc2ccccc2)NC(=O)[C@@H](NC(=O)c2ccc(Cl)s2)CC=CCCCN1", 3.58),
    ("O=C1C[C@H]2CCCN2C(=O)[C@H](Cc2ccccc2)NC(=O)[C@@H](NC(=O)c2ccc(Cl)s2)CCC=CCCCN1", 3.20),
]

The recorded log10 Ki for entry O=C1C[C@H]2CCCN2C(=O)[C@H](Cc2ccccc2)NC(=O)[C@@H](NC(=O)c2ccc(Cl)s2)CCC=CCCN1 equals 3.63
